target: T1, biotinylated goat anti-human kappa light chain; assay: ELISA; positive control; note: test concentration or dose not given here
T1 construct: Positive control of the ELISA
parameter-measured: optical density

binder	parameter-measured	recorded-result
374_H06 (antibody, V domains shown, VH/VL only) VH: EVQLLESGGGLVQPGGSLRLSCAASGFTFSSYGMNWVRQAPGKGLEWVSNINYNGGYTGYADSVKGRFTISRDNSKNTLYLQMNSLRAEDTAVYYCARSANWHDTALDYWGQGTLVTVSS VL: DIQMTQSPSSLSASVGDRVTITCRASQSIVSYVNWYQQKPGKAPKLVIYAATSRASGVPSRFSGSGSGTDFTLTISSLQPEDFATYYCQQSYNLPLTFGGGTKVEIK	optical density	3.08 OD
365_G12 (antibody, V domains shown, VH/VL only) VH: EVQLLESGGGLVQPGGSLRLSCAASGFTFSSYGMNWVRQAPGKGLEWVAGINYNSGYTSYADSVKGRFTISRDNSKNTLYLQMNSLRAEDTAVYYCARSATWHDTALDYWGQGTLVTVSS VL: DIQMTQSPSSLSASVGDRVTITCRASQSILSYVNWYQQKPGKAPKLVIYAATSRASGVPSRFSGSGSGTDFTLTISSLQPEDFATYYCQQSYSNPLTFGGGTKVEIK	optical density	3.55 OD
